Values compiled from the Immune Epitope Database (IEDB).

- System: HLA-A*02:16
- Test name: IEDB peptide-MHC binding, purified MHC/direct/fluorescence; filed as Kd, often an IC50 or EC50 that approximates it; bounds were set here for any values at or beyond the usual limits of such assays
- Condition details: source organism: Influenza A virus H3N2
Measured attribute: Kd

The sequence identified as "GMDPRMCSL" registered its Kd at 19 nM

* * *

- System: HLA-A*30:01
- Test name: IEDB peptide-MHC binding, purified MHC/competitive/radioactivity; filed as Kd, often an IC50 or EC50 that approximates it; bounds were set here for any values at or beyond the usual limits of such assays
- Condition details: source organism: Vaccinia virus WR
Each record here notes measured Kd.
// return numeric value only (unit: µM, not printed)

Here is how some sequences turned out for Kd.
INSERT INTO assay_data (record_sequence, recorded_measurement) VALUES
  ('KTIYAVDSF', 1.39),
  ('KTISMLIEV', 0.58),
  ('RYRQRLISL', 0.00517),
  ('RSLIIVLLF', 2.35),
  ('NMFNISFRF', 0.0272),
  ('KVKSYNYML', 0.000175);

Lab note: measured Kd of "RFKKESSLA" was 0.000305

Short answer for "KVYINHPFM" : Kd was 0.000517

According to the records, this sequence "KTSCSKNEA" displays Kd of 0.0722

Record "GERYYFAYI" . Reported Kd: 6.62
